Reference source: the RNAGym collection of RNA variant scans (doi:10.7554/elife.90254)

B1: OR4K15 (parent)
chain: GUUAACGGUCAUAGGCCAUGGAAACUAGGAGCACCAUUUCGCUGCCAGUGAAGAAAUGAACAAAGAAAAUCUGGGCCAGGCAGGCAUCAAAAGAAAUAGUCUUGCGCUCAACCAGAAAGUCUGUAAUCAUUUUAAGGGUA

Variants of: B1
measurement-notes: self-cleavage, relative activity (ratio to wild type); higher = more cleavage; in vitro, sequencing; the parent is a self-cleaving ribozyme
Please provide measured self-cleavage for the entries that follow.
One number for each entry.

Please review the following examples before continuing.
variant-annotation | result-value
A86G U133C | 2.05
A36G A82G | 0.53
U9C C46A | 1.74
A89U A114G | 0.49
U39A A129C | 1.24
U12C U122C | 1.05
A60G A129U | 1.14
A66U A82G | 0.92
U26A A129G | 1.36
U57C U102A | 0.48

I'm hoping you can list self-cleavage for every variant here, please.
1. U12G A60G
2. A86G A96G

Response:
[1.59, 0.71]
